Protocol: Confirmatory screen GU Rhodamine qHTS for Zika virus inhibitors qHTS (AID 1347157); note: nearly all actives have a fitted effect of over 70% in size
Measurement conditions: purified enzyme assay, Rhodamine110 substrate fluorescence, 15 min; series mostly up to 114 µM
Records with an inconclusive call do not appear. Active and inactive are the calls of the source. Calls come from the whole dose curve; as a rule, active = well fitted inhibition curve with a large enough effect; inconclusive = small, poorly fitted or top-dose-only effect; inactive = flat fitted curve, though single readings scatter.
Classes used: t = active, f = inactive

INSERT INTO measurements (compound, class) VALUES
  ('CCOC(=O)c1c(-c2ccc(C)cc2)csc1NC(=O)c1cc(-c2ccc(Cl)cc2)on1', 'f'),
  ('Cc1ccc2nc(NS(=O)(=O)c3ccc(Cl)cc3)c(Nc3ccc(C(=O)O)cc3)nc2c1', 't'),
  ('COc1ccc(-c2cc(=O)c3c(O)cc(O)c(-c4cc(-c5cc(=O)c6c(O)cc(O)cc6o5)ccc4OC)c3o2)cc1', 't'),
  ('O=C(Nc1cccc(C(=O)OCc2cc(=O)n3c4c(sc3n2)CCCC4)c1)c1ccc(Cl)cc1', 'f'),
  ('N#C/C(=C\c1ccc(-c2ccc(Cl)c(C(=O)O)c2)o1)c1nc2ccccc2[nH]1', 't'),
  ('COC(=O)c1ccccc1NC(=O)CSc1nc(-c2ccccc2)cc(C(F)(F)F)n1', 'f'),
  ('O=C(O)CSc1nc2ccc(NC(=O)COc3ccc(Cl)cc3)cc2s1', 't'),
  ('O=C(Nc1ccccc1C(=O)OCc1cc(=O)n2c3c(sc2n1)CCCC3)c1ccc(F)cc1', 'f'),
  ('COC(=O)c1ccc([C@H]2Nc3ccc(S(=O)(=O)Nc4cccc(C)c4)cc3[C@H]3C=CC[C@H]32)cc1', 't'),
  ('O=C(OCc1cccc(C(F)(F)F)c1)c1ccc(-c2nnn(Cc3ccc(F)cc3)n2)cc1', 'f'),
  ('O=C(O[C@@H]1Cc2c(O)cc(O)cc2OC1c1ccc(O)c(O)c1)c1cc(O)c(O)c(O)c1 (stereo partly specified)', 't'),
  ('O=C(COc1ccccc1F)Nc1ccccc1C(=O)OCc1cc(=O)n2nc(C3CC3)sc2n1', 'f'),
  ('COc1ccc(S(=O)(=O)c2c(Nc3c(C)cccc3C)sc(C(=O)c3ccc4c(c3)OCO4)c2N)cc1', 'f'),
  ('COC(=O)C1=C(c2ccccc2)c2ccccc2S(=O)(=O)N1CC(=O)Nc1ccccc1C(F)(F)F', 'f'),
  ('CCOC(=O)c1ccc(NC(=O)Cn2nnc(-c3ccc(C(F)(F)F)cc3)n2)cc1', 'f'),
  ('O=C(OC1Cc2c(O)cc(O)cc2OC1c1cc(O)c(=O)c2c(O)c(O)cc(C3Oc4cc(O)cc(O)c4CC3OC(=O)c3cc(O)c(O)c(O)c3)c2c1)c1cc(O)c(O)c(O)c1 (stereo unspecified)', 't'),
  ('Cc1ccc(-c2nnc(Nc3ccc(O)cc3)c3ccccc23)cc1S(=O)(=O)NCc1nc2ccccc2[nH]1', 'f'),
  ('Cc1c(C2(c3cc(C(C)C)c(O)c(Br)c3C)OS(=O)(=O)c3ccccc32)cc(C(C)C)c(O)c1Br', 't'),
  ('O=c1c(-c2cc(O)c(O)c(O)c2)coc2cc(O)c(O)c(O)c12', 't'),
  ('Cc1ccc(C(=O)Nc2ccc(C(=O)OCc3cc(=O)n4c5c(sc4n3)CCCC5)cc2)cc1', 'f'),
  ('O=C(NCc1ccc(Oc2ccccc2)cc1)c1nc(-c2cc(Br)c(O)c(Br)c2)no1', 't'),
  ('CC1CCN(C(c2ccc(F)cc2)c2ccc(C(C)C(=O)O)cc2-c2ccc(C(F)(F)F)cc2)CC1 (stereo unspecified)', 't'),
  ('Cc1ccc(NC(=O)CSc2ncccc2C(=O)Oc2ccccc2Cl)cc1Cl', 'f'),
  ('O=C(OCC#CCSc1nnc(-c2ccccc2Cl)o1)c1ccc(F)cc1', 'f'),
  ('O=C(OCC#CCSc1nnc(-c2ccc(F)cc2)o1)c1ccc(F)cc1', 'f'),
  ('CCOC(=O)c1ccc(NC(=O)c2ccc3c(c2)CCN3S(=O)(=O)c2ccc(Cl)cc2)cc1', 'f'),
  ('COc1cc(C2Nc3ccccc3-c3nnc(SCc4ccc(Cl)cc4)nc3O2)ccc1OCC(=O)O (stereo unspecified)', 't'),
  ('O=C1c2ccc(O)c(O)c2C(=O)c2c(O)ccc(O)c21', 't'),
  ('CCOc1ccc(C(=O)Nc2ccccc2C(=O)OCc2cc(=O)n3nc(C4CC4)sc3n2)cc1', 'f'),
  ('Cc1cn2c(=O)cc(COC(=O)c3ccc(NC(=O)c4ccc(C(C)(C)C)cc4)cc3)nc2s1', 'f'),
  ('COc1ccc(S(=O)(=O)c2c(Nc3ccc(C)cc3)sc(C(=O)c3ccc4c(c3)OCO4)c2N)cc1', 'f');
